Test system: Bordetella pertussis
MEASUREMENT_DESCRIPTION: microbe, parasite or virus in culture
Assay type: cell-based
DETAILS: Bordetella pertussis, 168 h, read-out: Relative yield Average, 20 mM in medium; max OD650 nm relative to water controls
PROPERTY: activity at 20000 µM

Sample answers from the record:
[[record]]
item_smiles = "CC[C@H](C)[C@H](N)C(=O)O"
property = "activity at 20000 µM"
obs_value = "< 95%"

[[record]]
item_smiles = "N[C@@H](CS)C(=O)O"
property = "activity at 20000 µM"
obs_value = "> 105%"

[[record]]
item_smiles = "OCC(O)CO"
property = "activity at 20000 µM"
obs_value = "> 105%"

[[record]]
item_smiles = "O=C(O)[C@@H]1CCCN1"
property = "activity at 20000 µM"
obs_value = "> 105%"

[[record]]
item_smiles = "N[C@@H](CO)C(=O)O"
property = "activity at 20000 µM"
obs_value = "< 95%"

[[record]]
item_smiles = "C[C@@H](O)[C@H](N)C(=O)O"
property = "activity at 20000 µM"
obs_value = "< 95%"


Using the record for `CSCC[C@H](N)C(=O)O` , report its activity at 20000 µM.
> 105%

And for `NC(=O)CC[C@H](N)C(=O)O` ?
> 105%

And for `N[C@@H](Cc1c[nH]cn1)C(=O)O` ?
< 95%
